Assay Details: Caco-2 permeability / efflux study
Type: in vitro ADME
Assay Context: human, Caco-2, pH 7.4, Caco-2 efflux ratio, 10 μM
Metric: efflux ratio at 2 h, 10 μM

P: CCS(=O)(=O)c1ccc(-n2ccn(-c3c4c(nn3-c3cc(C)c(F)c(C)c3)CCN(C(=O)c3cc5cc(C6CCOCC6)ccc5n3[C@@]3(c5noc(=O)[nH]5)C[C@@H]3C)[C@H]4C)c2=O)cc1 [Compound C-1, reference compound]
Q: CCS(=O)(=NC)c1ccc(-n2ccn(-c3c4c(nn3-c3cc(C)c(F)c(C)c3)CCN(C(=O)c3cc5cc([C@H]6CCOC(C)(C)C6)ccc5n3[C@@]3(c5noc(=O)[nH]5)C[C@@H]3C)[C@H]4C)c2=O)c(F)c1 (single isomer, unassigned)
R: CNS(=O)(=O)c1ccc(-n2ccn(-c3c4c(nn3-c3cc(C)c(F)c(C)c3)CCN(C(=O)c3cc5cc(C6CCOCC6)ccc5n3[C@@]3(c5noc(=O)[nH]5)C[C@@H]3C)[C@H]4C)c2=O)cc1 [Compound C-3, reference compound]
S: Cc1cc(-n2nc3c(c2-n2ccn(-c4ccc5c(cnn5C)c4F)c2=O)[C@H](C)N(C(=O)c2cc4cc([C@H]5CCOC(C)(C)C5)ccn4c2C2(c4noc(=O)[nH]4)CC2)CC3)cc(C2CC2)c1F [Compound C-6, reference compound]
Would you mind ranking these molecules by ascending efflux ratio at 2 h, 10 μM? Arrange the labels as the request states and list them.
Q, S, P, R
(Q: 5.5, S: 26, P: 51.7, R: 78.1)
